FYI, the data here is from PubChem BioAssay (NCI).

system: COLO 205 colon; assay: NCI tumour cell line growth inhibition, 48 h
*1 amine or outer side, *2 acyl side, *3 side chain or, on linkers, in order; H or OH if unused. Where a SMILES comes first, the peptide text is derived from it. Bridges are numbered along the chain shown (N, C = ends). Roman numbers before positions name the chains, in order. [ ]: non-standard residue; d: D form. The star is where a group is joined. Actinocin(9to1) = Cc1c2oc3c(C)ccc(C(=O)[*:1])c3nc-2c(C(=O)[*:2])c(N)c1=O; NMeV = CN[CH](C(=O)O)C(C)C; Boc = CC(C)(C)OC(=O)*; Sar = CNCC(=O)O
readout_label: TGI

[[record]]
compound = "CSCCC(NC(=O)C(CC(C)C)NC(=O)C1CCCN1C(=O)C(Cc1ccccc1)NC(=O)C(Cc1ccccc1)NC(=O)C(CCC(=O)O)NC(=O)OC(C)(C)C)C(N)=O (stereo not drawn) (Boc-EFFPLM-NH2; configuration not given here)"
subject_of_test = "COLO 205 colon"
reported = "> 100 µM"

[[record]]
compound = "Cc1c2oc3c(C)ccc(C(=O)OC(C)C4NC(=O)C(C(C)C)N(C)C(=O)CN(C)C(=O)C5CCCN5C(=O)C(C(C)C)NC4=O)c3nc-2c(C(=O)OC(C)C2NC(=O)C(C(C)C)N(C)C(=O)CN(C)C(=O)C3CCCN3C(=O)C(C(C)C)NC2=O)c(N)c1=O (stereo not drawn) (I: cyclo([Sar][NMeV]TVP) / II: cyclo([Sar][NMeV]TVP); linker I:3-II:3 via Actinocin(9to1); configuration not given here)"
subject_of_test = "COLO 205 colon"
reported = "0.0163 µM"

[[record]]
compound = "C[N+](C)(C)CCOC(=O)/C=C/c1cnc[nH]1"
subject_of_test = "COLO 205 colon"
reported = "> 500 µM"

[[record]]
compound = "O=C(Nc1cc(Cl)ccc1Cl)c1cc2cccc(Br)c2oc1=O"
subject_of_test = "COLO 205 colon"
reported = "> 100 µM"

[[record]]
compound = "Nc1ncn(C2OC(COP(=O)(O)O)C(O)C2O)c(=O)n1 (stereo not drawn)"
subject_of_test = "COLO 205 colon"
reported = "> 100 µM"

[[record]]
compound = "CCNC(=O)NNc1ncnc2c1c(-c1ccc(Cl)cc1)cn2-c1ccc(C)cc1"
subject_of_test = "COLO 205 colon"
reported = "29.9 µM"

[[record]]
compound = "COc1ccc(OC)c(NC2=NCCO2)c1"
subject_of_test = "COLO 205 colon"
reported = "> 100 µM"

[[record]]
compound = "O=C1Nc2ccccc2/C1=C\\c1cccc(/C=C2/C(=O)Nc3ccccc32)n1"
subject_of_test = "COLO 205 colon"
reported = "1.57 µM"

[[record]]
compound = "C=CC(C)(C)C1(CC(OC)OC)C(=O)N(C)c2ccccc21 (stereo not drawn)"
subject_of_test = "COLO 205 colon"
reported = "> 25 µM"

[[record]]
compound = "O=C(N/N=C\\c1cccs1)c1ccncc1"
subject_of_test = "COLO 205 colon"
reported = "> 100 µM"

[[record]]
compound = "Clc1ccccc1[C@@H]1C[C@@H]2Cc3cc(Br)c4ccccc4c3N1O2"
subject_of_test = "COLO 205 colon"
reported = "74 µM"

[[record]]
compound = "CSc1c2c(C)n[nH]c2nn1-c1ccccc1"
subject_of_test = "COLO 205 colon"
reported = "> 100 µM"

[[record]]
compound = "N=S(=O)(c1ccccc1)c1ccccc1"
subject_of_test = "COLO 205 colon"
reported = "> 100 µM"

[[record]]
compound = "CC/C=C\\C[C@H](O)C/C=C1/C(=O)C=C[C@@H]1C/C=C\\CCCC(=O)OC(C)C"
subject_of_test = "COLO 205 colon"
reported = "3.87 µM"

[[record]]
compound = "COc1cccc(-n2ncc3c(N/N=C/c4ccc(C)cc4)ncnc32)c1"
subject_of_test = "COLO 205 colon"
reported = "> 25 µM"

[[record]]
compound = "O=C(OCC1CCCN2CCCCC12)c1cccnc1 (stereo not drawn)"
subject_of_test = "COLO 205 colon"
reported = "> 100 µM"

[[record]]
compound = "CCC[CH2][Sn]([CH2]CCC)([CH2]CCC)[O]C(=O)C(OC(C)=O)c1ccccc1 (stereo not drawn)"
subject_of_test = "COLO 205 colon"
reported = "0.321 µM"

[[record]]
compound = "CC1(C)Oc2ccc3c(=O)cc(-c4cccs4)oc3c2C1C(=O)O (stereo not drawn)"
subject_of_test = "COLO 205 colon"
reported = "> 100 µM"

